subject.of.test: Lp-PLA2 (Homo sapiens, UniProt Q13093)
Construct: Individual serum No. 16, individual serum No. 78; from tissue; host or cells: serum and plasma (individual sera, pooled sera, heparin and citrated pooled plasma)
Sequence (Q13093 22-441): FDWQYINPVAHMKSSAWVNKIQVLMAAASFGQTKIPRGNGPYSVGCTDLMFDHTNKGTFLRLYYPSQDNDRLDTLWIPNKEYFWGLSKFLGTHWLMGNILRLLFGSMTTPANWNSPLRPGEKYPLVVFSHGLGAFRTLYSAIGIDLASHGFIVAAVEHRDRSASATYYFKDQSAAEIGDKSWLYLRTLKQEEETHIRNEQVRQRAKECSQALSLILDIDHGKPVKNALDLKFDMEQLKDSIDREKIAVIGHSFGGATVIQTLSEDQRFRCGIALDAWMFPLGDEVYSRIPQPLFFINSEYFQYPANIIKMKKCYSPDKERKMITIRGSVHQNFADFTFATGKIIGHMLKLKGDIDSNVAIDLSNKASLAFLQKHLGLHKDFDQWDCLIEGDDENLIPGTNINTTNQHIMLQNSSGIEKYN
assay.comment: Lp-PLA2 activity measurement in serum/plasma with reagents of the invention (PAF substrate, lyso-PAF-PLD, choline oxidase, peroxidase colorimetry)
Assay type: biochemical
test.context: Example 4; 50 mM buffer pH 7.5 in R1 and R2; sample Individual serum 78
Response key: 1 means Lp-PLA2 activity value >= 40 nmol/min/mL; 0 means Lp-PLA2 activity value < 40 nmol/min/mL.

> print(dat)
                                   compound  classification
1                  O=S(=O)(O)CCNC(CO)(CO)CO               0
2                 O=S(=O)(O)CCN1CCN(CCO)CC1               0
3        O=S(=O)(O)CCN1CCN(CCS(=O)(=O)O)CC1               1
4  NC(CO)(CO)CO [Tris, 2-Amino-2-hydroxymethyl-1,3-propanediol]               1
5    O=P(O)(O)O [Pi-K, potassium phosphate]               0

# credit: patent US10900063B2
